Hi there, I'd appreciate the recorded IC50 for every entry that follows.
Target of assay: recombinant human MetAP2 (Homo sapiens, UniProt P50579)
Construct: made in house; host or cells: insect cells
Sequence (P50579 whole entry): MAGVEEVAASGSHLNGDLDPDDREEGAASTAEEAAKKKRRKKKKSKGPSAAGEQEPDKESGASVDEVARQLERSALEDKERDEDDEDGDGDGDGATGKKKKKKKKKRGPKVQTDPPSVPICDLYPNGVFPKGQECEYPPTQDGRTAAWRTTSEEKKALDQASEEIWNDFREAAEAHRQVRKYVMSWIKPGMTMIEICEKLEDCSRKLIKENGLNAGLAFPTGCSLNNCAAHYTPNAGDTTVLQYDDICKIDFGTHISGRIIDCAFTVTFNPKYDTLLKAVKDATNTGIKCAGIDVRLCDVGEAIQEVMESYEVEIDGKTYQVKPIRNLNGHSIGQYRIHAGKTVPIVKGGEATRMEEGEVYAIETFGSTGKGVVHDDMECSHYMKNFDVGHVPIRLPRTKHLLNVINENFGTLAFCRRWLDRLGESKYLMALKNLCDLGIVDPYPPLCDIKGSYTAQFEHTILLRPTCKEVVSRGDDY
Assay protocol: methionine aminopeptidase activity of MetAP2 (Met-Gly-Met-Met substrate)
Type: biochemical
Test parameters: MetAP2 IC50 (nM), MetAP2 enzymatic activity; average of at least three experiments
Quick reminder: number only, in nM, skip the unit.

Requested read-out: IC50. Entry: CO[C@@H]1[C@H](OC(=O)NC(=O)CCl)CC[C@]2(CO2)[C@H]1[C@@]1(C)O[C@@H]1CC=C(C)C [AGM-1470]
1

Return reported IC50; argument: CO[C@@H]1[C@H](O)CC[C@]2(CO2)[C@@]1(O)[C@@]1(C)O[C@@H]1CC=C(C)C [FOS-34]
4

Please look up its IC50: CO[C@@H]1[C@H](OC(=O)CCCCl)CC[C@]2(CO2)[C@@]1(O)[C@@]1(C)O[C@@H]1CC=C(C)C [FOS-69]
0.1

---

Can you tell me pIC50 for the items I'm about to list?
Target of assay: recombinant human MetAP2 (Homo sapiens, UniProt P50579)
Construct: made in house; host or cells: insect cells
Assay protocol: methionine aminopeptidase activity of MetAP2 (Met-Gly-Met-Met substrate)
Format: biochemical
Test parameters: MetAP2 enzymatic activity; average of at least three experiments; read-out: MetAP2 IC50
Quick note: pIC50 values are minus log10 of concentrations in mol/L.

Returns the measured pIC50 for the input molecule. Input: `CO[C@@H]1C(=O)CC[C@]2(CO2)[C@H]1[C@@]1(C)O[C@@H]1CC=C(C)C`
8.22

Given the entry `CO[C@@H]1[C@H](OC(=O)NC(=O)CCl)CC[C@]2(CO2)[C@@]1(O)[C@@]1(C)O[C@@H]1CC=C(C)C` , report its measured pIC50.
8.70

// returns reported pIC50 for input COC1C(OC(=O)NC(=O)CCl)CCC(O)(CSC)C1(O)C1(C)OC1CC=C(C)C (stereo not shown)
6.40

// pIC50 lookup, key: COC1C(O)CCC(O)(CSC)C1(O)C1(C)OC1CC=C(C)C (stereo not shown)
7.35
